- target_desc: S. aureus ATCC 29213 FabI (Staphylococcus aureus (strain MRSA252))
- test: Staphylococcus aureus FabI enzyme inhibition assay
- Assay type: biochemical
- condition_label: pH 6.5, 30 minutes at room temperature
reported_endpoint: FabI IC50 (µg/mL)
Expressed in µg/mL, but write only the number.

-- ask Please give the measured FabI IC50 for this compound: Cc1ccccc1C1=CC2CN(C(=O)/C=C/c3cnc4c(c3)CCC(=O)N4)CC2C1 (centres unmarked)
-- reply 0.48

-- ask Please give the measured FabI IC50 for this compound: O=C1CCc2cc(/C=C/C(=O)N3CC4CC(n5nccn5)CC4C3)cnc2N1 (centres unmarked)
-- reply 0.56

-- ask Please give the measured FabI IC50 for this compound: COC1CC2CN(C(=O)/C=C/c3cnc4c(c3)CCC(=O)N4)CC2C1 (centres unmarked)
-- reply 1.42

-- ask Please give the measured FabI IC50 for this compound: O=C1CCc2cc(/C=C/C(=O)N3CC4C=C(c5ccccc5Cl)CC4C3)cnc2N1 (centres unmarked)
-- reply 0.75

-- ask Please give the measured FabI IC50 for this compound: CC(=O)c1ccc(C2=CC3CN(C(=O)/C=C/c4cnc5c(c4)CCC(=O)N5)CC3C2)s1 (centres unmarked)
-- reply 0.44

-- ask Please give the measured FabI IC50 for this compound: O=C1CCc2cc(/C=C/C(=O)N3CC4CC(n5cccn5)CC4C3)cnc2N1 (centres unmarked)
-- reply 1.04

-- ask Please give the measured FabI IC50 for this compound: CC1=CC2CN(C(=O)/C=C/c3cnc4c(c3)CCC(=O)N4)CC2C1 (centres unmarked)
-- reply 0.50

-- ask Please give the measured FabI IC50 for this compound: O=C1CCc2cc(/C=C/C(=O)N3CC4C=C(c5ccncc5)CC4C3)cnc2N1 (centres unmarked)
-- reply 0.44
